assay: Toxicity in po dosed mouse treated for 14 days; type: organism-based; settings: in vivo
RESULT TYPE: LD50 at 336 h

Problem: Fill in the blank: the reported LD50 at 336 h of N#Cc1[nH]c2ccc(C(O)(C(F)(F)F)C(F)(F)F)cc2c1-c1ccccc1 is ____.
Solution: > 1000 mg/kg

###

Target or system prostaglandin G/H synthase 1 (Bos taurus) (UniProt O62664): recorded IC50 listed per item.
Answer in µM, number only, no unit symbol.

item_smiles=NC(=O)c1[nH]c2ccc(C(O)(C(F)(F)F)C(F)(F)F)cc2c1-c1ccccc1 measured=7

# input for lookup
Problem: Fill in the blank: the reported IC50 of N#Cc1[nH]c2ccc(C(O)(C(F)(F)F)C(F)(F)F)cc2c1-c1ccccc1 is ____.
Solution: 0.5

###

tested on: Platelet; experiment: Inhibition of ADP-induced platelet aggregation in human platelet-rich plasma after 5 mins; format: functional
Reported values of IC50 for individual entries
Answer in µM, number only, no unit symbol.

A selection of reference data follows.
item_smiles=N#Cc1[nH]c2ccc(C(O)(C(F)(F)F)C(F)(F)F)cc2c1-c1ccccc1 measured=7.3
item_smiles=CC(=O)Oc1ccccc1C(=O)O measured=25

# input for lookup
Problem: Fill in the blank: the reported IC50 of COc1ccc2c(c1)c(CC(=O)O)c(C)n2C(=O)c1ccc(Cl)cc1 is ____.
Solution: 0.1

Numbers sourced from ChEMBL document CHEMBL3244071.
